In this section, each of the compounds is paired with its reported Ratio IC50.
experiment_notes: Selectivity ratio of IC50 for electric eel AChE to IC50 for equine serum BCHE

These recorded examples may help you get a feel for the data.
COc1cc(C(=O)NNC(=O)c2ccc3c(c2)COC3(CCCN(C)C)c2ccc(F)cc2)ccc1O (stereo not given) ... 1.45
Cc1ccccc1C(=O)NNC(=O)c1ccc2c(c1)COC2(CCCN(C)C)c1ccc(F)cc1 (stereo not given) ... 0.49
CN(C)CCCC1(c2ccc(F)cc2)OCc2cc(C(=O)NNC(=O)c3cccc(F)c3)ccc21 (stereo not given) ... 0.76
CN(C)CCCC1(c2ccc(F)cc2)OCc2cc(C(=O)NNC(=O)c3cccc([N+](=O)[O-])c3)ccc21 (stereo not given) ... 0.74
COc1ccc(C(=O)NNC(=O)c2ccc3c(c2)COC3(CCCN(C)C)c2ccc(F)cc2)cc1 (stereo not given) ... 0.63

Which Ratio IC50 is reported for this compound? CN(C)CCCC1(c2ccc(F)cc2)OCc2cc(C(=O)NNC(=O)c3ccccc3)ccc21 (stereo not given)
3.53

Which Ratio IC50 is reported for this compound? COc1ccccc1C(=O)NNC(=O)c1ccc2c(c1)COC2(CCCN(C)C)c1ccc(F)cc1 (stereo not given)
0.35

Which Ratio IC50 is reported for this compound? CN(C)CCCC1(c2ccc(F)cc2)OCc2cc(C(=O)NNC(=O)c3ccc(Br)cc3)ccc21 (stereo not given)
0.62

Which Ratio IC50 is reported for this compound? Cc1ccc(C(=O)NNC(=O)c2ccc3c(c2)COC3(CCCN(C)C)c2ccc(F)cc2)cc1 (stereo not given)
1.69

Which Ratio IC50 is reported for this compound? CN(C)CCCC1(c2ccc(F)cc2)OCc2cc(C(=O)NNC(=O)c3cccc(Cl)c3)ccc21 (stereo not given)
0.46
